Listing: %Inh of selected compounds
System: INSRR;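 further: KINOMEscan kinase panel screen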
Settings: concentration: 1 μM, replicates: in singlicate; n = 1
Respond with the bare value in %.

- compound: "COc1ccc(-c2coc3ccc(-c4nnc(SCc5cccc(C#N)c5)o4)cc23)cc1"
  numericReadout: 0
- compound: "COC(=O)c1c(-c2ccccc2)c2cc(Br)ccc2c(=O)n1Cc1ccc(S(C)(=O)=O)cc1"
  numericReadout: 1
- compound: "Nc1n[nH]c2ncc(-c3ccccc3)cc12 [SB-517081]"
  numericReadout: 0
- compound: "CCC(=O)c1c(-c2ccccc2)c2cc(Cl)ccc2c(=O)n1Cc1ccc(C(=O)O)cc1"
  numericReadout: 0
- compound: "COc1cc2ncn(-c3cc(OCc4ccncc4Br)c(C(N)=O)s3)c2cc1OC [GW854278]"
  numericReadout: 7

Input: I have this compound here, Cc1c(Cn2c(C)nn3c(=O)cc(N4CCO[C@H](C)C4)nc23)cccc1C(F)(F)F [GSK2373690] , and I need its recorded %Inh.
Output: 14

Input: I have this compound here, COc1cc2ncn(-c3cc(OCc4ccncc4)c(C(N)=O)s3)c2cc1OC [GSK336313] , and I need its recorded %Inh.
Output: 99.3

Input: I have this compound here, COc1ccc(Nc2nccc(N3CCC(NS(=O)(=O)c4ccc(NC(C)=O)cc4)C3)n2)cc1 (centres unmarked) [GSK1379729] , and I need its recorded %Inh.
Output: 21
